Consider the following compounds; for each one, report its selectivity ratio.
# measurement description: Selectivity index, ratio of IC50 for mouse RAW264.7 cells to MIC for Staphylococcus epidermidis ATCC12228
# Type: toxicity
# assay conditions: read-out: Selectivity Index
Write the number on its own, no unit after it.

stdin: Given COc1cc(/C=C/c2ccccc2F)c(C(=O)O)c(O)c1CC=C(C)C , respond with its selectivity ratio.
stdout: 6.17

stdin: Kindly indicate its recorded selectivity ratio. Item: COc1cc(/C=C/c2cccc(F)c2)c(C(=O)O)c(O)c1CC=C(C)C
stdout: 5.04

stdin: Indicate the recorded selectivity ratio value for this compound: COc1cc(/C=C/c2ccc(C(F)(F)F)cc2)c(C(=O)O)c(O)c1CC=C(C)C
stdout: 12.9
